- tgt: ERα (Homo sapiens (Human))
- method_description: Estrogen receptor degradation activity: breast cancer cell ERα in cell western assay
- assay_context: MCF7 cells, 4 hours post compound addition; concentration which degrades 50% of the estrogen receptor
The following compounds are shown together with reported IC50 values.

Answered examples (3):
- COc1ccc(C2=C(c3ccc(C=C4CN(CCCF)C4)cc3)c3ccc(C(=O)O)cc3CCC2)cc1OC: 1.4 nM
- COc1c(Cl)cccc1C1=C(c2ccc(C=C3CN(CCCF)C3)cc2)c2ccc(C(=O)O)cc2CCC1: 0.5 nM
- O=C(O)c1ccc2c(c1)CCCC(c1ccccc1CF)=C2c1ccc(C=C2CN(CCCF)C2)cc1: 0.3 nM

May I ask what IC50 has been recorded for `O=C(O)c1ccc2c(c1)CCCC(c1ccccc1C(F)F)=C2c1ccc(C=C2CN(CCCF)C2)cc1` ?
0.2 nM

May I ask what IC50 has been recorded for `O=C(O)c1ccc2c(c1)CCCC(c1c(F)cccc1C(F)(F)F)=C2c1ccc(C=C2CN(CCCF)C2)cc1` ?
0.6 nM

May I ask what IC50 has been recorded for `O=C(O)c1ccc2c(c1)CCCC(c1c(F)cccc1OC(F)(F)F)=C2c1ccc(C=C2CN(CCCF)C2)cc1` ?
0.6 nM

May I ask what IC50 has been recorded for `COc1cc(C)c(C2=C(c3ccc(C=C4CN(CCCF)C4)cc3)c3ccc(C(=O)O)cc3CCC2)c(C)c1` ?
0.6 nM

May I ask what IC50 has been recorded for `Cc1ccc(F)c(C)c1C1=C(c2ccc(C=C3CN(CCCF)C3)cc2)c2ccc(C(=O)O)cc2CCC1` ?
0.2 nM

May I ask what IC50 has been recorded for `Cc1ccc(C2=C(c3ccc(C=C4CN(CCCF)C4)cc3)c3ccc(C(=O)O)cc3CCC2)c(C)c1F` ?
0.7 nM

May I ask what IC50 has been recorded for `Cc1cc(C)c(C2=C(c3ccc(C=C4CN(CCCF)C4)cc3)c3ccc(C(=O)O)cc3CCC2)c(C)c1` ?
0.5 nM

May I ask what IC50 has been recorded for `CCc1c(Cl)cccc1C1=C(c2ccc(C=C3CN(CCCF)C3)cc2)c2ccc(C(=O)O)cc2CCC1` ?
0.5 nM

May I ask what IC50 has been recorded for `Cc1c(OC(F)(F)F)cccc1C1=C(c2ccc(C=C3CN(CCCF)C3)cc2)c2ccc(C(=O)O)cc2CCC1` ?
0.5 nM

May I ask what IC50 has been recorded for `COc1cccc(C2=C(c3ccc(C=C4CN(CCCF)C4)cc3)c3ccc(C(=O)O)cc3CCC2)c1C(F)(F)F` ?
0.4 nM

May I ask what IC50 has been recorded for `Cc1cc(C(F)F)ccc1C1=C(c2ccc(C=C3CN(CCCF)C3)cc2)c2ccc(C(=O)O)cc2CCC1` ?
0.5 nM

May I ask what IC50 has been recorded for `Cc1cccc(C(F)(F)F)c1C1=C(c2ccc(C=C3CN(CCCF)C3)cc2)c2ccc(C(=O)O)cc2CCC1` ?
0.3 nM

----------
The following compounds are shown together with reported pIC50 values.
- tgt: ERα (Homo sapiens (Human), UniProt P03372)
- Sequence (P03372 whole entry): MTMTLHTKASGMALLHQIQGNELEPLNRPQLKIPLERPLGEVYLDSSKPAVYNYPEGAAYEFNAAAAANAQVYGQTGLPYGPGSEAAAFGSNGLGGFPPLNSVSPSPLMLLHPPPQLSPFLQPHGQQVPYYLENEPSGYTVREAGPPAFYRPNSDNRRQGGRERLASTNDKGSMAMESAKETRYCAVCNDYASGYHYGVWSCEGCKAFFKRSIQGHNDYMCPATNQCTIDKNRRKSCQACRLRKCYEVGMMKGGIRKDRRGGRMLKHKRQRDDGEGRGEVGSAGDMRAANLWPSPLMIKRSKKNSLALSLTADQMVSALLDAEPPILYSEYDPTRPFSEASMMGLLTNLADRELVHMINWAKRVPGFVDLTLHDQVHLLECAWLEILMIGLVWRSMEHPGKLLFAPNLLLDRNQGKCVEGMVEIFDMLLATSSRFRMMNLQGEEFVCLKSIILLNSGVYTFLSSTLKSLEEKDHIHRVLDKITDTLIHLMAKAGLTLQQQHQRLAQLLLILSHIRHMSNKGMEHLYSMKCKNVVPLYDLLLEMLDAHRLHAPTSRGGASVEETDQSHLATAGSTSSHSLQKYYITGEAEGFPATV
- method_description: Estrogen receptor degradation activity: breast cancer cell ERα in cell western assay
- assay_context: MCF7 cells, 4 hours post compound addition; concentration which degrades 50% of the estrogen receptor
# pIC50 = -log10(concentration in molar units)

- COc1ccc(C2=C(c3ccc(C=C4CN(CCCF)C4)cc3)c3ccc(C(=O)O)cc3CCC2)c(C(F)F)c1 [Compound 37]: 9.22

May I ask what pIC50 has been recorded for O=C(O)c1ccc2c(c1)CCCC(c1cccc3c1CCCO3)=C2c1ccc(C=C2CN(CCCF)C2)cc1 [Compound 64] ?
8.51

May I ask what pIC50 has been recorded for CCc1c(C2=C(c3ccc(C=C4CN(CCCF)C4)cc3)c3ccc(C(=O)O)cc3CCC2)cccc1C(F)(F)F [Compound 5] ?
9.52

May I ask what pIC50 has been recorded for COc1cc(C2=C(c3ccc(C=C4CN(CCCF)C4)cc3)c3ccc(C(=O)O)cc3CCC2)ccc1C(F)F [Compound 31] ?
7.42

May I ask what pIC50 has been recorded for COc1cc(C)cc(C)c1C1=C(c2ccc(C=C3CN(CCCF)C3)cc2)c2ccc(C(=O)O)cc2CCC1 [Compound 14] ?
9.22

----------
- tgt: ERα (Homo sapiens (Human), UniProt P03372)
- method_description: Estrogen receptor degradation activity: breast cancer cell ERα in cell western assay
- Assay type: cell-based
- assay_context: MCF7 cells, 4 hours post compound addition; concentration which degrades 50% of the estrogen receptor; read-out: Degradation IC50
The following compounds are shown together with reported DC50 values.

* O=C(O)c1ccc2c(c1)CCCC(c1ccc(Cl)cc1Cl)=C2c1ccc(C=C2CN(CC(F)CF)C2)cc1 (single isomer, unassigned) [Compound 69] | 1.3 nM
* O=C(O)c1ccc2c(c1)CCCC(C1CC13CCC3)=C2c1ccc(C=C2CN(CCCF)C2)cc1 (single isomer, unassigned) [Compound 35] | 0.3 nM

Test system ERα (Homo sapiens (Human), UniProt P03372); read-out DC50; what value for O=C(O)c1ccc2c(c1)CCCC(c1ccc(Cl)cc1Cl)=C2c1ccc(C=C2CN(CC(F)CF)C2)cc1 (single isomer, unassigned) [Compound 70] ?
1.8 nM

Test system ERα (Homo sapiens (Human), UniProt P03372); read-out DC50; what value for O=C(O)c1ccc2c(c1)CCCC(C1CC13CCC3)=C2c1ccc(C=C2CN(CCCF)C2)cc1 (single isomer, unassigned) [Compound 36] ?
0.2 nM

Test system ERα (Homo sapiens (Human), UniProt P03372); read-out DC50; what value for CC1(C)CCC(C2=C(c3ccc(C=C4CN(CCCF)C4)cc3)c3ccc(C(=O)O)cc3CCC2)CC1 [Compound 68] ?
0.7 nM

Test system ERα (Homo sapiens (Human), UniProt P03372); read-out DC50; what value for Cc1c(C2=C(c3ccc(C=C4CN(CCCF)C4)cc3)c3ccc(C(=O)O)cc3CCC2)ccc(C(F)(F)F)c1F [Compound 73] ?
0.3 nM

----------
- tgt: ERα (Homo sapiens (Human), UniProt P03372)
- method_description: Estrogen receptor degradation activity: breast cancer cell ERα in cell western assay
- assay_context: MCF7 cells, 4 hours post compound addition; concentration which degrades 50% of the estrogen receptor
- Procedure: Said test involves measuring the in vitro degradation activity of the compounds of the Table 1a. The measurements of the degradation activities were made using a breast cancer cell ERα in cell western assay as described hereunder. […] The % of ERα levels decrease were determined as follows: % inhibition=100*(1−(sample−fulvestrant:DMSO−fulvestrant)).
Binary label based on IC50 with cut-off 0.5 nM: below gives YES, not below gives NO.

Illustrative cases are given below, each with its answer.
• COc1c(C2=C(c3ccc(C=C4CN(CCCF)C4)cc3)c3ccc(C(=O)O)cc3CCC2)cccc1C(F)(F)F = NO
• COc1ccc(C(F)F)c(C2=C(c3ccc(C=C4CN(CCCF)C4)cc3)c3ccc(C(=O)O)cc3CCC2)c1 = NO
• Cc1cc(C)c(C2=C(c3ccc(C=C4CN(CCCF)C4)cc3)c3ccc(C(=O)O)cc3CCC2)c(Cl)c1 = YES
• COc1c(C)cccc1C1=C(c2ccc(C=C3CN(CCCF)C3)cc2)c2ccc(C(=O)O)cc2CCC1 = NO
• Cc1cccc(F)c1C1=C(c2ccc(C=C3CN(CCCF)C3)cc2)c2ccc(C(=O)O)cc2CCC1 = YES
• CCc1cc(C)cc(CC)c1C1=C(c2ccc(C=C3CN(CCCF)C3)cc2)c2ccc(C(=O)O)cc2CCC1 = NO

hey, is IC50 for `CCc1cc(C(F)(F)F)ccc1C1=C(c2ccc(C=C3CN(CCCF)C3)cc2)c2ccc(C(=O)O)cc2CCC1` lower than 0.5 nM or not?
YES

hey, is IC50 for `COc1cccc(C2=C(c3ccc(C=C4CN(CCCF)C4)cc3)c3ccc(C(=O)O)cc3CCC2)c1OC` lower than 0.5 nM or not?
NO

hey, is IC50 for `CC(F)(F)c1cc(F)ccc1C1=C(c2ccc(C=C3CN(CCCF)C3)cc2)c2ccc(C(=O)O)cc2CCC1` lower than 0.5 nM or not?
YES

hey, is IC50 for `COc1cc(C2=C(c3ccc(C=C4CN(CCCF)C4)cc3)c3ccc(C(=O)O)cc3CCC2)ccc1C(F)(F)F` lower than 0.5 nM or not?
NO

----------
- tgt: ERα (Homo sapiens (Human), UniProt P03372)
- method_description: Estrogen receptor degradation activity: breast cancer cell ERα in cell western assay
- assay_context: MCF7 cells, 4 hours post compound addition; concentration which degrades 50% of the estrogen receptor
- Description: Said test involves measuring the in vitro degradation activity of the compounds of the Table 1a. The measurements of the degradation activities were made using a breast cancer cell ERα in cell western assay as described hereunder. […] The % of ERα levels decrease were determined as follows: % inhibition=100*(1−(sample−fulvestrant:DMSO−fulvestrant)).
endpoint_label: IC50 (nM)
Reply numerically in nM, unit not repeated.

Answered examples (5):
- COc1cccc(Cl)c1C1=C(c2ccc(C=C3CN(CCCF)C3)cc2)c2ccc(C(=O)O)cc2CCC1: 0.4
- Cc1cc(C)c(C2=C(c3ccc(C=C4CN(CCCF)C4)cc3)c3ccc(C(=O)O)cc3CCC2)c(C(F)(F)F)c1: 0.3
- O=C(O)c1ccc2c(c1)CCCC(c1ccc(C(F)(F)F)cc1C1CC1)=C2c1ccc(C=C2CN(CCCF)C2)cc1: 0.9
- Cc1cccc(OC(F)(F)F)c1C1=C(c2ccc(C=C3CN(CCCF)C3)cc2)c2ccc(C(=O)O)cc2CCC1: 0.7
- O=C(O)c1ccc2c(c1)CCCC(c1ccc(C(F)F)cc1C(F)(F)F)=C2c1ccc(C=C2CN(CCCF)C2)cc1: 0.5

May I ask what IC50 has been recorded for `Cc1cccc(C2=C(c3ccc(C=C4CN(CCCF)C4)cc3)c3ccc(C(=O)O)cc3CCC2)c1C(F)F` ?
0.4

May I ask what IC50 has been recorded for `Cc1cccc(Cl)c1C1=C(c2ccc(C=C3CN(CCCF)C3)cc2)c2ccc(C(=O)O)cc2CCC1` ?
0.5
